Answer each item with its documented composite z-score.
molecular target: Torsin-1A (Homo sapiens); test: torsin A binders from cell lysate, primary screen, small-molecule microarray, wild-type, 635/667 nm (AID 1149); details: COS7 hTOR1A-WT lysate, 635 nm fluorescence, higher = more signal
In your answer, state the number alone without any accompanying words.

Answer with the recorded composite z-score of `COc1ccc([Si](C)(C)[C@H]2[C@H](CC(=O)N3Cc4ccccc4C[C@H]3CO)O[C@@]3(C(=O)N(Cc4ccc(N5CCC5=O)cc4)c4ccccc43)[C@@H]2C)cc1` only.
1.27

Complete the entry with composite z-score for `CC(=O)N1Cc2ccccc2C[C@@]2(COC(c3ccc(OCCCO)cc3)=N2)C1=O`
0.135

For the molecule `CC(C)(C)OC(=O)CC[C@@]1(C(=O)NCCN2CCOCC2)N=C(c2ccc(OCCCO)cc2)O[C@@H]1c1ccccc1N=[N+]=[N-]` , report composite z-score.
1.67

Supply recorded composite z-score for `COC(=O)[C@@]1(Cc2ccc(OC)cc2)[C@H]2c3cc(C(=O)N4CCCC4)n(Cc4ccsc4Br)c3C[C@H]2CN1C(=O)c1ccccc1` here.
-0.34

Name the recorded composite z-score of the molecule listed here: CN1C(=O)C2C=CC(C(O)C3=C[C@H]4C[C@@H](C3)C4(C)C)N(Nc3ccccc3)C2C1=O (stereo partly drawn)
-0.189

Identify measured composite z-score corresponding to `COCCOC(=O)N1C(=O)[C@@]2(c3ccccc31)[C@H](c1ccccc1OCCO)N1[C@H](c3ccccc3)[C@H](c3ccccc3)OC(=O)[C@H]1[C@@H]2C(=O)Nc1nc2ccccc2s1`
0.421

Determine from records and report composite z-score for `CCOC(=O)C[C@H]1[C@H](OC(=O)Cc2ccc3c(c2)OCO3)[C@@H](NC(=O)c2ccc3ccccc3c2)c2cc(OCCCO)ccc2N1C(=O)c1ccccc1`
0.0289

Quickly give me recorded composite z-score for CC1CC/C=C\[C@H]2OC34C=CCN(c5ccc(Cl)cc5)C(=O)[C@H]3N(CCO)C(=O)[C@]4(C)C2C(=O)O1 (stereo partly drawn)
-0.433

Consider the molecule `COC(=O)C(CC#Cc1ccc2c(c1)[C@]1(C(=O)N2)[C@H](c2ccc(O)cc2)N2[C@H](c3ccccc3)[C@H](c3ccccc3)OC(=O)[C@H]2[C@@H]1C(=O)Nc1nc2ccccc2s1)C(=O)OC` and give its recorded composite z-score.
1.41

State its composite z-score: `O=C(NCc1ccccc1)[C@@]1(Cc2ccccc2)N=C(c2ccc(OCCCO)cc2)O[C@H]1c1ccccc1`
0.924

Item `CCOC(=O)C[C@H]1[C@H](OC(=O)Cc2ccc3c(c2)OCO3)[C@@H](NC(=O)c2ccc(-c3ccccc3)cc2)c2cc(OCCCO)ccc2N1C(=O)Cc1ccc(OC)cc1` : provide composite z-score
0.0816

Given CC(C)c1ccc(NN2C(C(O)c3cc(C(F)(F)F)cc(C(F)(F)F)c3)C=CC3C(=O)N(c4ccccc4)C(=O)C32)cc1 (stereo not drawn) , respond with its composite z-score.
-0.283

Report composite z-score, nothing else, for this molecule: `COC(=O)C(CC#Cc1ccc2c(c1)[C@]1(C(=O)N2)[C@H](C(=O)O)[C@H]2C(=O)O[C@H](c3ccccc3)[C@H](c3ccccc3)N2[C@@H]1c1ccc(O)cc1)C(=O)OC`
-0.21
